Values were extracted from ChEMBL document CHEMBL3272295.

- assay.notes: Acute toxicity in po dosed mouse
- Format: organism-based
- conditions.used: in vivo
For each entry below, report its LD50 value.

Known results for compounds:
compound: CCCCCc1cc(O)c2c(c1)OC(C)(C)[C@@H]1CCC(C)=C[C@@H]21
LD50: ≥ 1000 mg/kg
--
compound: CCCCCC(C)C(C)c1cc(O)c2c(c1)OC(C)(C)C1=C2CC(C)CC1 (centres undefined)
LD50: ≥ 1000 mg/kg
--
compound: CC1CCC2=C(C1)c1c(OC(=O)CCCN3CCOCC3)cc(C(C)CCCc3ccc(F)cc3)cc1OC2(C)C.Cl (centres undefined)
LD50: ≥ 1000 mg/kg
--
compound: C#CCN1CCC2=C(C1)c1c(O)cc(C(C)CCCc3ccc(F)cc3)cc1OC2(C)C (centres undefined)
LD50: ≥ 1000 mg/kg

Could you tell me LD50 for each of these compounds? They are listed below.
1. C#CCN1CCC2=C(C1)c1c(O)cc(C(C)CCCCc3ccc(F)cc3)cc1OC2(C)C (centres undefined)
2. CC1CCC2=C(C1)c1c(O)cc(C(C)CCCN(C)C)cc1OC2(C)C (centres undefined)
3. CC1CCC2=C(C1)c1c(O)cc(C(C)C(C)CCCc3ccc(F)cc3)cc1OC2(C)C (centres undefined)
4. C#CCN1CCC2=C(C1)c1c(O)cc(CCCCC)cc1OC2(C)C
5. CC1CCC2=C(C1)c1c(O)cc(C(C)CCCc3ccccc3)cc1OC2(C)C (centres undefined)
6. CC1CCC2=C(C1)c1c(O)cc(C(C)C(C)CCc3ccc(F)cc3)cc1OC2(C)C (centres undefined)
7. C#CCN1CCC2=C(C1)c1c(O)cc(C(C)C(C)CCCc3ccc(F)cc3)cc1OC2(C)C (centres undefined)

Response:
1: ≥ 1000 mg/kg; 2: ≥ 1000 mg/kg; 3: 500 mg/kg; 4: ≥ 1000 mg/kg; 5: 750 mg/kg; 6: 750 mg/kg; 7: ≥ 1000 mg/kg

Look up LD50 for the entries below, preserving their order.
1. CC1CCC2=C(C1)c1c(O)cc(C(C)CCCc3ccc(F)cc3)cc1OC2(C)C (centres undefined)
2. Br.CC(CCCc1ccc(F)cc1)c1cc(O)c2c(c1)OC(C)(C)C1=C2C2CCN1CC2 (centres undefined)
3. CC1CCC2=C(C1)c1c(O)cc(CCCCCc3ccc(F)cc3)cc1OC2(C)C (centres undefined)
4. C#CCN1CCC2=C(C1)c1c(OC(=O)CCCN3CCCCC3)cc(C(C)CCCc3ccc(F)cc3)cc1OC2(C)C.Cl (centres undefined)
5. CCCCCC(C)C(C)c1cc(O)c2c(c1)OC(C)(C)C1CC=C(C)CC21 (centres undefined)
6. CC1CCC2=C(C1)c1c(OC(=O)CCCN3CCCCC3)cc(C(C)CCCc3ccc(F)cc3)cc1OC2(C)C.Cl (centres undefined)
7. CC(CCCc1ccc(F)cc1)c1cc(O)c2c(c1)OC(C)(C)C1=C2CCC1 (centres undefined)
8. CC1CCC2=C(C1)c1c(O)cc(C(C)CCc3ccc(F)cc3)cc1OC2(C)C (centres undefined)

Response:
≥ 1000 mg/kg
≥ 1000 mg/kg
≥ 1000 mg/kg
750 mg/kg
≥ 1000 mg/kg
≥ 1000 mg/kg
≥ 1000 mg/kg
≥ 1000 mg/kg

====

Would you kindly list Activity for each of these molecules?
- Tested on: Rattus norvegicus
- assay.notes: Antipsychotic activity in rat assessed as reduction of methamphetamine-induced hyperactivity at 2.5 mg/kg, po administered prior to methamphetamine challenge relative to vehicle-treated control
- Type: functional
- Design: scale not given: the % may be the effect or the level left
One number for each entry, in %.

molecule: CCCCCC(C)C(C)c1cc(O)c2c(c1)OC(C)(C)C1CC=C(C)CC21 (centres undefined)
Activity [%]: 52
--
molecule: CC1CCC2=C(C1)c1c(OC(=O)CCCN3CCCCC3)cc(C(C)CCCc3ccc(F)cc3)cc1OC2(C)C.Cl (centres undefined)
Activity [%]: 50
--
molecule: CC1CCC2=C(C1)c1c(OC(=O)CCCN3CCOCC3)cc(C(C)CCCc3ccc(F)cc3)cc1OC2(C)C.Cl (centres undefined)
Activity [%]: 86

// next entry
Prompt: Fill in: Activity of CCCCCC(C)C(C)c1cc(O)c2c(c1)OC(C)(C)C1=C2CC(C)CC1 (centres undefined) is ___
Response: 48

====

- assay.notes: Acute toxicity in po dosed mouse
- Format: organism-based
- conditions.used: in vivo
recorded.metric: LD50

# count of solved cases: 6
compound: C#CCN1CCC2=C(C1)c1c(OC(C)=O)cc(C(C)CCCc3ccc(F)cc3)cc1OC2(C)C (centres undefined)
recorded.metric: LD50
result: ≥ 1000 mg/kg
//
compound: CC1CCC2=C(C1)c1c(O)cc(C(C)CCCCc3ccc(F)cc3)cc1OC2(C)C (centres undefined)
recorded.metric: LD50
result: 750 mg/kg
//
compound: CC1CCC2=C(C1)c1c(O)cc(C(C)C(C)CCc3ccncc3)cc1OC2(C)C (centres undefined)
recorded.metric: LD50
result: ≥ 1000 mg/kg
//
compound: Cc1ccc(CCCC(C)c2cc(O)c3c(c2)OC(C)(C)C2=C3CC(C)CC2)cc1 (centres undefined)
recorded.metric: LD50
result: ≥ 1000 mg/kg
//
compound: C#CCN1CCC2=C(C1)c1c(OC(=O)C(C)CCN3CCOCC3)cc(C(C)CCCc3ccc(F)cc3)cc1OC2(C)C.Cl (centres undefined)
recorded.metric: LD50
result: ≥ 1000 mg/kg
//
compound: C#CCN1CCC2=C(C1)c1c(O)cc(C(C)CCCc3ccc(C)cc3)cc1OC2(C)C (centres undefined)
recorded.metric: LD50
result: ≥ 1000 mg/kg

Consider the following items and state reported LD50 for each.
1. C#CCN1CCC2=C(C1)c1c(OC(=O)CCCN3CCOCC3)cc(C(C)CCCc3ccc(F)cc3)cc1OC2(C)C.Cl.Cl (centres undefined)
2. C#CCN1CCC2=C(C1)c1c(O)cc(C(C)C(C)CCCCC)cc1OC2(C)C (centres undefined)
3. C#CCN1CCC2=C(C1)c1c(O)cc(C(C)C(C)CCc3ccc(F)cc3)cc1OC2(C)C (centres undefined)

Response:
["≥ 1000 mg/kg", "≥ 1000 mg/kg", "≥ 1000 mg/kg"]

====

- Tested on: Rattus norvegicus
- assay.notes: Antianxiety activity in Long-Evans rat assessed as reduction in motor activity at 5 mg/kg, po after 2 hrs relative to vehicle-treated control
- Assay type: functional
- Set-up: scale not given: the % may be the effect or the level left
recorded.metric: Activity (%)
One number for each entry, in %.

compound: C#CCN1CCC2=C(C1)c1c(OC(=O)CCCN3CCCCC3)cc(C(C)CCCc3ccc(F)cc3)cc1OC2(C)C.Cl (stereo not given)
unit.string: %
Activity: 87

Each compound below has a recorded value; state its Activity.
1. C#CCN1CCC2=C(C1)c1c(O)cc(C(C)CCCc3ccc(C)cc3)cc1OC2(C)C (stereo not given)
2. C#CCN1CCC2=C(C1)c1c(O)cc(C(C)C(C)CCc3ccc(F)cc3)cc1OC2(C)C (stereo not given)
3. CN1C(=O)CN=C(c2ccccc2)c2cc(Cl)ccc21 [DIAZEPAM]
4. CC(CCCc1ccc(F)cc1)c1cc(O)c2c(c1)OC(C)(C)C1=C2CCC1 (stereo not given)

Response:
1. 24
2. 59
3. 15
4. 41

====

- Test system: Rattus norvegicus
- assay.notes: Antihypertensive activity in spontaneously hypertensive rat model assessed as reduction in blood pressure at 1 mg/kg, po after 24 hrs
- Type: functional
- Set-up: scale not given: the % may be the effect or the level left
Answer each item with its documented Activity.
Include the unit right after the number.

compound: Cc1ccc(CCCC(C)c2cc(O)c3c(c2)OC(C)(C)C2=C3CC(C)CC2)cc1 (stereo not drawn)
Activity: 0%
//
compound: CC1CCC2=C(C1)c1c(O)cc(C(C)CCc3ccc(F)cc3)cc1OC2(C)C (stereo not drawn)
Activity: 5%
//
compound: CC1CCC2=C(C1)c1c(O)cc(CCCCCc3ccc(F)cc3)cc1OC2(C)C (stereo not drawn)
Activity: 9%
//
compound: CC1CCC2=C(C1)c1c(O)cc(C(C)CCCCc3ccc(F)cc3)cc1OC2(C)C (stereo not drawn)
Activity: 4%
//
compound: CC1CCC2=C(C1)c1c(O)cc(C(C)C(C)CCCc3ccc(F)cc3)cc1OC2(C)C (stereo not drawn)
Activity: 0%
//
compound: CC1CCC2=C(C1)c1c(O)cc(C(C)C(C)CCc3ccc(F)cc3)cc1OC2(C)C (stereo not drawn)
Activity: 12%
//
compound: CC1CCC2=C(C1)c1c(O)cc(C(C)C(C)Cc3ccc(F)cc3)cc1OC2(C)C (stereo not drawn)
Activity: 9%

Prompt: Item CC1CCC2=C(C1)c1c(O)cc(C(C)C(C)CCc3ccncc3)cc1OC2(C)C (stereo not drawn) has what recorded Activity?
Response: 15%
